Test system: cucumber mosaic virus (CMV)
Conditions: 5 plants; drench 3 days before inoculation; g ai/10a: (a) 90, (b) 150, dinotefuran 120, thiamethoxam 60, (h) 250, mixtures 90 + 120 and 150 + 60
Record form. Attribute: Number of CMV Infected Plants: Mosaic. Fill in for each entry.
Answers are plain numbers.

Please review the following examples before continuing.
• CN1COCN(Cc2cnc(Cl)s2)/C1=N\[N+](=O)[O-] [Thiamethoxam, thiamethoxam] = 3
• C=CCOC1=NS(=O)(=O)c2ccccc21 [Probenazole (h), probenazole] = 2
• Cc1ccc(C(=O)NC[C@@H](NC(=O)OCC(F)(F)F)C(C)C)cc1 [Tolprocarb (a), tolprocarb] = 3

Look at each compound and report its Number of CMV Infected Plants: Mosaic.
1. O=C1CCc2cccc3c2N1CC3 [Pyroquilon (b), pyroquilon]
2. CN/C(=N/CC1CCOC1)N[N+](=O)[O-] (centres unmarked) [Dinotefuran, dinotefuran]

[4, 2]

* * *

Record form. Attribute: Number of CMV Infected Plants: No Infection. Fill in for each entry.
System: cucumber mosaic virus (CMV)
Conditions: 5 plants; drench 3 days before inoculation; g ai/10a: (a) 90, (b) 150, dinotefuran 120, thiamethoxam 60, (h) 250, mixtures 90 + 120 and 150 + 60
Numbers only.

Please review the following examples before continuing.
- CN1COCN(Cc2cnc(Cl)s2)/C1=N\[N+](=O)[O-]: 1
- Cc1ccc(C(=O)NC[C@@H](NC(=O)OCC(F)(F)F)C(C)C)cc1: 2
- O=C1CCc2cccc3c2N1CC3: 1
- CN/C(=N/CC1CCOC1)N[N+](=O)[O-] (centres unmarked): 1

Okay, now this compound:
Name the recorded Number of CMV Infected Plants: No Infection of "C=CCOC1=NS(=O)(=O)c2ccccc21" , assay system cucumber mosaic virus (CMV).
3
